Here we list compounds with their recorded pIC50 when tested on UniProtKB A1Z1Q3.
Sequence (A1Z1Q3 59-240 limits assumed): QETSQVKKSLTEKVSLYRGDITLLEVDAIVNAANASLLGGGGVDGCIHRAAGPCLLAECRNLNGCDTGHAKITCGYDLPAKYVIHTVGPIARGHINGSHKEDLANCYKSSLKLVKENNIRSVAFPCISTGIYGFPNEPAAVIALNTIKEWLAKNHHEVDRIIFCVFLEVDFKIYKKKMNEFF
One number for each entry, as −log10 of the molar value.

[
  {
    "compound": "Nc1ncnc2c1ncn2[C@@H]1O[C@H](COP(=O)(O)OP(=O)(O)OC[C@H]2O[C@H](Oc3ccc4c(C(F)(F)F)cc(=O)oc4c3)[C@H](O)[C@@H]2O)[C@@H](O)[C@H]1O [TFMU-ADPr]",
    "measured-parameter": "pIC50",
    "observed-result": 7.05
  }
]

// below: pIC50 requested for another compound
// lookup pIC50 for Nc1ncnc2c1ncn2[C@@H]1O[C@H](COP(=O)(O)OP(=O)(O)OC[C@H]2O[C@H](Oc3ccc([N+](=O)[O-])cc3)[C@H](O)[C@@H]2O)[C@@H](O)[C@H]1O [pNP-ADPr, ADP-ribosylated p-nitrophenol]
6.82

----------
molecular target: VEEV Macro (Venezuelan equine encephalitis virus, UniProt P27282); assay: biochemical; type: binding
Sequence (P27282 1330-1489 limits assumed): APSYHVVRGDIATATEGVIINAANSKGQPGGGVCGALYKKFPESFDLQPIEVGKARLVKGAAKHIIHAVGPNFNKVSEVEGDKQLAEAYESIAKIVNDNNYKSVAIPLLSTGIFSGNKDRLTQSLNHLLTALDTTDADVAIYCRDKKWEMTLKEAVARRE
measured-parameter: pIC50
Answers are plain numbers, as −log10 of the molar value.

[
  {
    "structure-notation": "Nc1ncnc2c1ncn2[C@@H]1O[C@H](COP(=O)(O)OP(=O)(O)OC[C@H]2O[C@H](Oc3ccc([N+](=O)[O-])cc3)[C@H](O)[C@@H]2O)[C@@H](O)[C@H]1O",
    "target-entity": "VEEV Macro (Venezuelan equine encephalitis virus, UniProt P27282)",
    "measured-parameter": "pIC50",
    "observed-result": 4.97
  }
]

// below: pIC50 requested for another compound
// lookup pIC50 for Nc1ncnc2c1ncn2[C@@H]1O[C@H](COP(=O)(O)OP(=O)(O)OC[C@H]2O[C@H](Oc3ccc4c(C(F)(F)F)cc(=O)oc4c3)[C@H](O)[C@@H]2O)[C@@H](O)[C@H]1O
5.37

----------
target: VEEV Macro (Venezuelan equine encephalitis virus, UniProt P27282); assay: biochemical; assay type: binding; details: read-out: IC50 VEEV Macro
measured-parameter: pIC50
Answers are plain numbers, as −log10 of the molar value.

Give the reported pIC50 for Nc1ncnc2c1ncn2[C@@H]1O[C@H](COP(=O)(O)OP(=O)(O)OC[C@H]2OC(O)[C@H](O)[C@@H]2O)[C@@H](O)[C@H]1O (stereo partly shown) [ADPr, adenine diphosphate ribose] (system: VEEV Macro (Venezuelan equine encephalitis virus, UniProt P27282)).
4.74

----------
target: PARP9 Macro2 (Homo sapiens, UniProt Q8IXQ6); experiment: biochemical; assay type: binding
measured-parameter: IC50 (µM)
Answers are plain numbers, in µM.

[
  {
    "structure-notation": "Nc1ncnc2c1ncn2[C@@H]1O[C@H](COP(=O)(O)OP(=O)(O)OC[C@H]2O[C@H](Oc3ccc([N+](=O)[O-])cc3)[C@H](O)[C@@H]2O)[C@@H](O)[C@H]1O",
    "IC50 (µM)": 4.5
  }
]

// lookup IC50 for Nc1ncnc2c1ncn2[C@@H]1O[C@H](COP(=O)(O)OP(=O)(O)OC[C@H]2O[C@H](Oc3ccc4c(C(F)(F)F)cc(=O)oc4c3)[C@H](O)[C@@H]2O)[C@@H](O)[C@H]1O
10.9

----------
Here we list compounds with their recorded IC50 when tested on UniProt:Q8JUX6.
Sequence (Q8JUX6 1334-1493 limits assumed): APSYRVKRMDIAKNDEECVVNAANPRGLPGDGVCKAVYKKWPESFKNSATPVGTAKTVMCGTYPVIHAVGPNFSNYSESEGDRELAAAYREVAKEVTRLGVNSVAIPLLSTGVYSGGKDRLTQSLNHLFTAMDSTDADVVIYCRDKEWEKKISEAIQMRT
Numbers only, in µM.

[
  {
    "structure-notation": "Nc1ncnc2c1ncn2[C@@H]1O[C@H](COP(=O)(O)OP(=O)(O)OC[C@H]2O[C@H](Oc3ccc([N+](=O)[O-])cc3)[C@H](O)[C@@H]2O)[C@@H](O)[C@H]1O",
    "observed-result": 22.8
  }
]

// lookup IC50 for Nc1ncnc2c1ncn2[C@@H]1O[C@H](COP(=O)(O)OP(=O)(O)OC[C@H]2O[C@H](Oc3ccc4c(C(F)(F)F)cc(=O)oc4c3)[C@H](O)[C@@H]2O)[C@@H](O)[C@H]1O
37.6

----------
Please respond with reported IC50 for every item in the list.
target: MacroD1 (Homo sapiens, UniProt Q9BQ69); assay: biochemical; type: binding
Sequence (Q9BQ69 141-322 limits assumed): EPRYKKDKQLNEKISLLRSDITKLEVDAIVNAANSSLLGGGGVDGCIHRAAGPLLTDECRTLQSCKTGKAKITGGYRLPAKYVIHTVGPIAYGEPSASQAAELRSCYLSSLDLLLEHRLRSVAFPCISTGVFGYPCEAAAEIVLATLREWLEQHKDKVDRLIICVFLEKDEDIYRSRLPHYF
Give bare numbers, in nM.

[
  {
    "structure-notation": "Nc1ncnc2c1ncn2[C@@H]1O[C@H](COP(=O)(O)OP(=O)(O)OC[C@H]2O[C@H](Oc3ccc([N+](=O)[O-])cc3)[C@H](O)[C@@H]2O)[C@@H](O)[C@H]1O",
    "IC50 (nM)": 960
  }
]

// lookup IC50 for Nc1ncnc2c1ncn2[C@@H]1O[C@H](COP(=O)(O)OP(=O)(O)OC[C@H]2O[C@H](Oc3ccc4c(C(F)(F)F)cc(=O)oc4c3)[C@H](O)[C@@H]2O)[C@@H](O)[C@H]1O
290

----------
Here we list molecules with their recorded pIC50 when tested on SARS-CoV-2 Macro1 (Severe acute respiratory syndrome coronavirus 2).
Numbers only, as −log10 of the molar value.

Before answering, review these 2 worked examples.
[
  {
    "molecule": "Nc1ncnc2c1ncn2[C@@H]1O[C@H](COP(=O)(O)OP(=O)(O)OC[C@H]2O[C@H](Oc3ccc([N+](=O)[O-])cc3)[C@H](O)[C@@H]2O)[C@@H](O)[C@H]1O",
    "pIC50": 6.43
  },
  {
    "molecule": "Nc1ncnc2c1ncn2[C@@H]1O[C@H](COP(=O)(O)OP(=O)(O)OC[C@H]2O[C@H](Oc3ccc4c(C(F)(F)F)cc(=O)oc4c3)[C@H](O)[C@@H]2O)[C@@H](O)[C@H]1O",
    "pIC50": 6.23
  }
]

// lookup pIC50 for [N-]=[N+]=NC1OC(COP(=O)(O)OP(=O)(O)OCC2OC(n3cnc4c(N)ncnc43)C(O)C2O)C(O)C1O (stereo not drawn)
5.14

The reported measurements were obtained from paper PMC10178785.
